pIC50: −log10 of the molar value.
Assembled from different publications: pIC50 for High affinity nerve growth factor receptor (Homo sapiens, UniProt P04629).

Value (pIC50, High affinity nerve growth factor receptor (Homo sapiens, UniProt P04629)) for record `COc1cc(Cn2c(N)nc3cc(-c4cnn(C)c4)cnc32)ccc1OCc1csc(C)n1` = 9.30

Kindly note: High affinity nerve growth factor receptor (Homo sapiens, UniProt P04629), `CCOc1cc2nccc(Oc3ccc(NC(=O)c4c(OCC)ccn(-c5ccc(F)cc5)c4=O)cc3F)c2c2c1OCCO2` , pIC50 value reported: > 7.30

Response field pIC50 (High affinity nerve growth factor receptor (Homo sapiens, UniProt P04629)) for item `Cc1ccc(NC(=O)Nc2cccc(C(F)(F)F)c2)cc1C#Cc1cncc2c1cnn2C` : ≤ 5.00

With High affinity nerve growth factor receptor (Homo sapiens, UniProt P04629) as the test system, `COCCN1C[C@@H](NC(=O)Nc2cc(-c3ccccn3)nn2C)[C@H](c2cc(F)cc(F)c2)C1` showed pIC50 of > 7.00

# lookup: `CNC(=O)c1nn(-c2ccccc2)c(NC(=O)N[C@@H]2CN(CCOC)C[C@H]2c2ccc(F)c(F)c2)c1C` on High affinity nerve growth factor receptor (Homo sapiens, UniProt P04629), pIC50 = > 7.00

Form: item `Cc1c(C#Cc2cnc3ccc(N4CCC(C)(O)CC4)nn23)cccc1C(=O)Nc1cc(Cl)cc(C(F)(F)F)c1` ; test system High affinity nerve growth factor receptor (Homo sapiens, UniProt P04629); pIC50: 7.00 to 8.00

Let me check: O=C(Nc1c2c(nn1-c1ccccc1)CCC2)N[C@@H]1CN(CCOC(F)(F)F)C[C@H]1c1ccccc1 (relative stereo) , system High affinity nerve growth factor receptor (Homo sapiens, UniProt P04629), measured pIC50 is > 7.00

Form field, pIC50 with High affinity nerve growth factor receptor (Homo sapiens, UniProt P04629), item `CC(C)=CNc1ncnc2[nH]cc(C(=O)c3ccc(NC4CCC(F)(F)CC4)nc3Cl)c12` : < 6.00

pIC50 on High affinity nerve growth factor receptor (Homo sapiens, UniProt P04629) for `CC1(C)CC(=O)c2c(C(=O)Nc3ccc(N4CCNCC4)cn3)coc2C1` is 7.20

Param item: Cc1cc(NC(=O)N[C@@H]2c3ccccc3C(C)(C)C[C@H]2O)c(C2CCOCC2)nc1-c1ccc(O)nc1 (racemic) ; param system: High affinity nerve growth factor receptor (Homo sapiens, UniProt P04629); output pIC50: ≥ 7.30

The molecule `Fc1nc(NCc2cccnc2OC2CCCC2)ccc1Cc1c[nH]c2ncncc12` , when measured on High affinity nerve growth factor receptor (Homo sapiens, UniProt P04629), yielded pIC50 of ≥ 5.00

Value sought: pIC50, system High affinity nerve growth factor receptor (Homo sapiens, UniProt P04629), item `COCCN1C[C@@H](NC(=O)Nc2c3c(nn2-c2ccccc2)CCC3)[C@H](c2ccc(F)cc2)C1` . Result: > 7.00

High affinity nerve growth factor receptor (Homo sapiens, UniProt P04629) data for `CCOc1ccn(-c2ccc(F)cc2)c(=O)c1C(=O)Nc1ccc(Oc2ccnc3cc(OCCCN4CCN(C(C)=O)CC4)c4c(c23)OCCO4)c(F)c1` ; its pIC50: > 7.30

`COCCN1C[C@@H](NC(=O)Nc2cnn3ccccc23)[C@H](c2ccc(F)c(F)c2)C1` on High affinity nerve growth factor receptor (Homo sapiens, UniProt P04629) gives pIC50 = > 7.00

Note to self: pIC50 of `CC(C)Oc1ncccc1CNc1ccc(Cc2c[nH]c3ncncc23)c(F)n1` with High affinity nerve growth factor receptor (Homo sapiens, UniProt P04629) was ≥ 5.00

Field pIC50 (High affinity nerve growth factor receptor (Homo sapiens, UniProt P04629)), entry `CC(C)Oc1nc(N2CCN(C(=O)N3CCOCC3)C[C@H]2CO)ccc1NC(=O)c1coc2c1C(=O)NC(C)(C)C2` : 8.64

Item `C[C@@H]1CCc2ncc(F)cc2[C@@H]2[C@H]3C[C@H]3CN2c2ccn3ncc(c3n2)C(=O)N1` ; assay system High affinity nerve growth factor receptor (Homo sapiens, UniProt P04629); pIC50 reported as < 6.00

Kindly note: High affinity nerve growth factor receptor (Homo sapiens, UniProt P04629), `C[C@@H](c1ccc(F)cn1)n1cnc2ccc(Nc3cc(C4CC4)[nH]n3)nc21` , pIC50 value reported: 7.64

So the reported pIC50 for `COC(=O)Nc1ccc(-c2cn3ncc4c3nc2NCc2cc(F)cnc2O[C@@H](C)CNC4=O)cc1` , on High affinity nerve growth factor receptor (Homo sapiens, UniProt P04629), turned out to be < 5.00

Query `Cc1ccc(Nc2ccc(C(=O)c3c[nH]c4ncnc(NC5CCCCC5)c34)c(F)n2)cn1` on High affinity nerve growth factor receptor (Homo sapiens, UniProt P04629); pIC50 returned: > 7.00

Noted pIC50 for CNC(=O)c1ccc(-c2cc(O[C@H](C)C(F)(F)F)c3c(N)n[nH]c3c2)cc1N1CCN2CCCCC2C1 (some centres unmarked) , tested on High affinity nerve growth factor receptor (Homo sapiens, UniProt P04629): 5.20

I looked up `Cn1cc(C(=O)Nc2ccc(Oc3ccnc4cc(OC5CCOCC5)c5c(c34)OCCO5)c(F)c2)c(=O)n(-c2ccc(F)cc2)c1=O` and its pIC50 for High affinity nerve growth factor receptor (Homo sapiens, UniProt P04629) was > 7.30

pIC50 value, target or system High affinity nerve growth factor receptor (Homo sapiens, UniProt P04629), for `CCOc1ccc(NC(=O)N[C@@H]2CN(CCOC)C[C@H]2c2ccc(F)c(F)c2)c(-c2ccccc2)n1` : > 7.00

Case `CCOc1ncnc2[nH]cc(Cc3ccc(Nc4ccc(C)nc4)nc3F)c12` , High affinity nerve growth factor receptor (Homo sapiens, UniProt P04629), pIC50 recorded as > 7.00

# `COc1cc2nccc(Oc3cc(C)c(NC(=O)c4cn(C)c(=O)n(-c5ccc(F)cc5)c4=O)cc3F)c2c2c1OCCO2` with High affinity nerve growth factor receptor (Homo sapiens, UniProt P04629): pIC50 is > 7.30

Log: High affinity nerve growth factor receptor (Homo sapiens, UniProt P04629), molecule `Fc1cc(F)cc(Cc2ccc3[nH]nc(/C=C/c4cccnc4)c3c2)c1` , pIC50 = 8.40

Simply: `COc1nc(N2CCN(C(=O)N3CCOCC3)CC2)ccc1NC(=O)c1coc2c1C(=O)NC(C)(C)C2` , High affinity nerve growth factor receptor (Homo sapiens, UniProt P04629), pIC50 = 7.74

Item `COC[C@@H]1CN(c2ccc(NC(=O)c3coc4c3C(=O)NC(C)(C)C4)c(OCC(C)(C)O)n2)CCN1C(C)=O` ; assay system High affinity nerve growth factor receptor (Homo sapiens, UniProt P04629); pIC50 reported as 8.74

The molecule Cc1cc(NC(=O)N[C@@H]2c3cc(F)c(F)cc3C(C)(C)C[C@H]2O)c(-c2ccccc2)nc1-c1ccc(CO)cc1 (racemic) , when measured on High affinity nerve growth factor receptor (Homo sapiens, UniProt P04629), yielded pIC50 of ≥ 7.30
